Test: Biodistribution in PC-3 tumor-bearing NSG mice (Example 2)
Format: in vivo
Conditions: male, NSG (NOD.Cg-Prkdc^scid Il2rg^tm1Wjl/SzJ), mouse, tumor/kidney, iv, total radioactivity, 60 MIN BLOCKED, co-injection of 100 μg of [D-Phe^6,Leu-NHEt^13,des-Met^14]Bombesin(6-14); read-out: TUMOR-TO-KIDNEY ratio, Mean
Protocol: […]. The mice were sacrificed by CO2 inhalation at 1 h, and 2 h p.i. Blood was collected by cardiac puncture. Organs/tissues were harvested, rinsed with PBS, blotted dry, and weighed. The activity in tissues was assayed by gamma counter and expressed as the percentage injected dose per gram of tissue (% ID/g).
outcome_measure: tissue to tissue ratio at 1 h
Keep the answer to the number alone.

(Q) Look up and state reported tissue to tissue ratio at 1 h for CC(C)C[C@@H](CN1CCC[C@H]1C(N)=O)NC(=O)[C@H](Cc1c[nH]cn1)NC(=O)CNC(=O)[C@@H](NC(=O)[C@H](C)NC(=O)[C@H](Cc1c[nH]c2ccccc12)NC(=O)[C@H](CCC(N)=O)NC(=O)[C@@H](Cc1ccccc1)NC(=O)CN1CCC(NC(=O)CN2CCN(CC(=O)O)CCN(CC(=O)O)CCN(CC(=O)O)CC2)CC1)C(C)C [^68Ga-ProBOMB2, metal not drawn]
(A) 1.77
